Tested on: MCF7
Assay: percentage of EdU-negative (G0-arrested) nuclei per well, 72 h; higher = more G0 arrest;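 further: secreted proteins added to cultured cells, EdU pulse at the end, nuclei found by Hoechst imaging, EdU status from nuclear versus surrounding ring intensity ratio, PBS as neutral control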
Settings: protein concentration 0.0357143 µM; reference: sequence is the full UniProt precursor, the tested protein was the secreted form or ectodomain
Provide the recorded percentage of EdU-negative for the entries that follow.
Numbers only, in %.

percentage of EdU-negative measured on MAQTNSFFMLISSLMFLSLSQGQESQTELPNPRISCPEGTNAYRSYCYYFNEDPETWVDADLYCQNMNSGNLVSVLTQAEGAFVASLIKESSTDDSNVWIGLHDPKKNRRWHWSSGSLVSYKSWDTGSPSSANAGYCASLTSCSGFKKWKDESCEKKFSFVCKFKN = 27

Now consider the entry below.
So, MCLSHLENMPLSHSRTQGAQRSSWKLWLFCSIVMLLFLCSFSWLIFIFLQLETAKEPCMAKFGPLPSKWQMASSEPPCVNKVSDWKLEILQNGLYLIYGQVAPNANYNDVAPFEVRLYKNKDMIQTLTNKSKIQNVGGTYELHVGDTIDLIFNSEHQVLKNNTYWGIILLANPQFIS [Q9UNG2] ? Its percentage of EdU-negative was 24.5

###

System: hTERT-HMEC
Test: percentage of EdU-negative (G0-arrested) nuclei per well, 72 h; higher = more G0 arrest
Conditions: protein concentration 0.0257143 µM; reference: sequence is the full UniProt precursor, the tested protein was the secreted form or ectodomain
endpoint_name: percentage of EdU-negative (%)
Numbers only, in %.

// solved cases for percentage of EdU-negative follow
What the record says about MKVLLCDLLLLSLFSSVFSSCQRDCLTCQEKLHPALDSFDLEVCILECEEKVFPSPLWTPCTKVMARSSWQLSPAAPEHVAAALYQPRASEMQHLRRMPRVRSLFQEQEEPEPGMEEAGEMEQKQLQKRFGGFTGARKSARKLANQKRFSEFMRQYLVLSMQSSQRRRTLHQNGNV : percentage of EdU-negative is 4.77

Summary for this sequence, MKKSGVLFLLGIILLVLIGVQGTPVVRKGRCSCISTNQGTIHLQSLKDLKQFAPSPSCEKIEIIATLKNGVQTCLNPDSADVKELIKKWEKQVSQKKKQKNGKKHQKKKVLKVRKSQRSRQKKTT : percentage of EdU-negative is 4.62

Lab note: MAKDFQDIQQLSSEENDHPFHQGEGPGTRRLNPRRGNPFLKGPPPAQPLAQRLCSMVCFSLLALSFNILLLVVICVTGSQSEGHGGAQLQAELRSLKEAFSNFSSSTLTEVQAISTHGGSVGDKITSLGAKLEKQQQDLKADHDALLFHLKHFPVDLRFVACQMELLHSNGSQRTCCPVNWVEHQGSCYWFSHSGKAWAEAEKYCQLENAHLVVINSWEEQKFIVQHTNPFNTWIGLTDSDGSWKWVDGTDYRHNYKNWAVTQPDNWHGHELGGSEDCVEVQPDGRWNDDFCLQVYRWVCEKRRNATGEVA gave percentage of EdU-negative of 4.62

Next, consider the following sequence.
Sure, the documented percentage of EdU-negative for MKPWILLLVMFISGVVMLLPVLGSFWNKDPFLDMIRETEQCWVQPPYKYCEKRCTKIMTCVRPNHTCCWTYCGNICLDNEEPLKSMLNP [Q8NEX5] is 5.54

###

Tested on: MCF7
Test: percentage of EdU-negative (G0-arrested) nuclei per well, 72 h; higher = more G0 arrest
Conditions: protein concentration 0.225 µM; reference: sequence is the full UniProt precursor, the tested protein was the secreted form or ectodomain
endpoint_name: percentage of EdU-negative
Quick note: number first, unit second.

Known percentage of EdU-negative results, listed for orientation:
// MRRASRDYTKYLRGSEEMGGGPGAPHEGPLHAPPPPAPHQPPAASRSMFVALLGLGLGQVVCSVALFFYFRAQMDPNRISEDGTHCIYRILRLHENADFQDTTLESQDTKLIPDSCRRIKQAFQGAVQKELQHIVGSQHIRAEKAMVDGSWLDLAKRSKLEAQPFAHLTINATDIPSGSHKVSLSSWYHDRGWAKISNMTFSNGKLIVNQDGFYYLYANICFRHHETSGDLATEYLQLMVYVTKTSIKIPSSHTLMKGGSTKYWSGNSEFHFYSINVGGFFKLRSGEEISIEVSNPSLLDPDQDATYFGAFKVRDID : percentage of EdU-negative value = 25.6%

percentage of EdU-negative recorded for this sequence, MAQYLSTLLLLLATLAVALAWSPKEEDRIIPGGIYNADLNDEWVQRALHFAISEYNKATKDDYYRRPLRVLRARQQTVGGVNYFFDVEVGRTICTKSQPNLDTCAFHEQPELQKKQLCSFEIYEVPWENRRSLVKSRCQES , is 25%

# sequence MASPGCLWLLAVALLPWTCASRALQHLDPPAPLPLVIWHGMGDSCCNPLSMGAIKKMVEKKIPGIYVLSLEIGKTLMEDVENSFFLNVNSQVTTVCQALAKDPKLQQGYNAMGFSQGGQFLRAVAQRCPSPPMINLISVGGQHQGVFGLPRCPGESSHICDFIRKTLNAGAYSKVVQERLVQAEYWHDPIKEDVYRNHSIFLADINQERGINESYKKNLMALKKFVMVKFLNDSIVDPVDSEWFGFYRSGQAKETIPLQETSLYTQDRLGLKEMDNAGQLVFLATEGDHLQLSEEWFYAHIIPFLG ; its percentage of EdU-negative = 26.4%

Entry MPAVFMLASSSALQCGRGVPRFPRTEVGAGHSVNEETKAEKVGNQTSVIPATSRQAALGTSWTQRRTQPLQERSHWHPRGNNASGMGGHRMFPGPLRGPAAQVLENECGSLGRAAEGRS [Q8N2X6] ; percentage of EdU-negative = 24.7%

Recorded result, MLLLINVILTLWVSCANGQVKPCDFPDIKHGGLFHENMRRPYFPVAVGKYYSYYCDEHFETPSGSYWDYIHCTQNGWSPAVPCLRKCYFPYLENGYNQNYGRKFVQGNSTEVACHPGYGLPKAQTTVTCTEKGWSPTPRCIRVRTCSKSDIEIENGFISESSSIYILNKEIQYKCKPGYATADGNSSGSITCLQNGWSAQPICINSSEKCGPPPPISNGDTTSFLLKVYVPQSRVEYQCQPYYELQGSNYVTCSNGEWSEPPRCIHPCIITEENMNKNNIKLKGRSDRKYYAKTGDTIEFMCKLGYNANTSILSFQAVCREGIVEYPRCE , percentage of EdU-negative: 29.4%

More entries:
percentage of EdU-negative in this record for MERASLIQKAKLAEQAERYEDMAAFMKGAVEKGEELSCEERNLLSVAYKNVVGGQRAAWRVLSSIEQKSNEEGSEEKGPEVREYREKVETELQGVCDTVLGLLDSHLIKEAGDAESRVFYLKMKGDYYRYLAEVATGDDKKRIIDSARSAYQEAMDISKKEMPPTNPIRLGLALNFSVFHYEIANSPEEAISLAKTTFDEAMADLHTLSEDSYKDSTLIMQLLRDNLTLWTADNAGEEGGEAPQEPQS : 20.9%
